What normalized growth was measured for each of the following?
Assay Text: chemical genetic growth profiling, strain panel (AID 1159580);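 note: tested at 20 µM; growth read once vehicle control cultures reached saturation at 30 °C; 1 = growth at the plate median or of vehicle wells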
Condition Info: S. cerevisiae deletion strains, growth OD, locus YJR043C, strain POL32, stronger effect = lower value
Hit rate of the full screen: of about 5,500 compounds, about 2,000 (36%) were called active. Inconclusive results (about 18%) are left out. This is one part of the list.
Numbers only.

Example entries begin here.
O=C1CC2OCC=C3CN4CC[C@]56c7ccccc7N1C5[C@H]2[C@H]3CC46 (some centres not stated): 0.997
Cc1cccc2c1N(C(=S)Nc1ccccc1Cl)CCC2: 0.997
COC(=O)C(C)c1ccc(C(=O)c2cccs2)cc1 (configuration not stated): 0.972
CC1OC1P(=O)(O)O (configuration not stated): 1.01
COC(=O)C(O)c1ccccc1 (configuration not stated): 1.09
CC1(C)O[C@H]2[C@H](O)C[C@](O)(C(N)=O)C[C@H]2O1: 1.05

# next compound below
Prompt: // query normalized growth value for entry "Nc1cc2c(cc1Cl)C(=O)NC2=O"
Response: 1.01

----------
Assay Text: chemical genetic growth profiling, strain panel (AID 1159580)
Condition Info: S. cerevisiae deletion strains, growth OD, locus YAL030W, strain snc1, stronger effect = lower value
About 2,000 (36%) of roughly 5,500 compounds were called active. Inconclusive results (about 18%) are left out. This is one part of the list.
Observed Property: normalized growth
Give bare numbers.

Example entries begin here.
NS(=O)(=O)c1cc2c(cc1Cl)NC(C(Cl)Cl)NS2(=O)=O (stereo unspecified): 0.978
CO/N=C(\C(=O)NC1C(=O)N2C(C(=O)OC(C)OC(C)=O)=C(COC(N)=O)CSC12)c1ccco1 (stereo unspecified): 0.998
CC(C)(C)CC(C)(C)c1ccc(O)c(Cc2ccc(Cl)cc2Cl)c1: 1.01
Cc1cccc(Nc2ccccc2C(=O)O)c1C: 0.913
NC(=O)c1cccc(N)c1: 0.992

Please give normalized growth for each item listed below.
1. CCOC(=O)Nc1nc2ccccc2[nH]1
2. Cc1ccc(C)c(OCCCC(C)(C)C(=O)O)c1

Response:
1: 0.96; 2: 0.981

----------
Assay Text: chemical genetic growth profiling, strain panel (AID 1159580)
Condition Info: S. cerevisiae strains, growth OD, strain wild type, stronger effect = lower value
About 2,000 (36%) of roughly 5,500 compounds were called active. Roughly 18% stayed inconclusive and do not appear here. This is one part of the list.
What normalized growth was measured for each of the following?
Answers are plain numbers.

Example entries begin here.
O=C(c1ccc(-c2ccccc2)cc1)c1cc2cc([N+](=O)[O-])ccc2o1: 0.987
N#CC(C#N)=Cc1ccc(-c2cc(C(F)(F)F)ccc2Cl)o1: 0.959
Nc1ccn(C2O[C@H](CO)[C@@H](O)[C@@H]2O)c(=O)n1 (stereo partly specified): 1.01
CC(C)NCC(O)c1cc(O)cc(O)c1 (stereo unspecified): 1.01
CC(C)n1cc(C#N)c(=O)n(Cc2ccccc2)c1=O: 1.01

Please give normalized growth for each item listed below.
1. CC1(C)C2CC(=O)[C@]3(C)C(CC[C@@]4(C)[C@H](c5ccoc5)OC(=O)[C@H]5O[C@]543)[C@@]2(C)C=C[C@@H]1O (stereo partly specified)
2. COc1ccc2c(c1)CCC(c1ccccc1)=C2c1ccc(OCCN2CCCC2)cc1
3. O=C(Cn1ccnc1[N+](=O)[O-])NCCO
4. CCOC(=O)Cn1c(=O)c(C#N)cn(C(C)C)c1=O
5. Nc1cc2c(cc1Cl)C(=O)NC2=O
6. O=C1OC(c2ccc(O)cc2)(c2ccc(O)cc2)c2ccccc21

Response:
1: 1.01; 2: 0.358; 3: 1.01; 4: 1.01; 5: 1.02; 6: 0.998

----------
Assay Text: chemical genetic growth profiling, strain panel (AID 1159580)
Condition Info: S. cerevisiae deletion strains, growth OD, locus YGL173C, strain kem1
Hit rate of the full screen: of about 5,500 compounds, about 2,000 (36%) were called active. About 18% were inconclusive and are not listed. No stated cut-off is given here; in the data, active means normalized growth mostly below about 0.91 (no sharp cut-off); inconclusive means no clear call, values can overlap the other calls; inactive means mostly above about 0.92. This is one part of the list.
Outcomes you can answer with include only these: 1 (active), 0 (inactive)

// below: answered compounds
C#CCCCCCCCCCCCC(=O)CC(O)COC(C)=O (stereo unspecified): 0
COc1ccc([C@H]2Oc3cc(OC)cc(OC)c3C[C@H]2O)cc1: 0
CC(C)(Oc1ccc(C2CC2(Cl)Cl)cc1)C(=O)O (stereo unspecified): 0

Would you kindly look at the next entry?
Prompt: How did this test come out for COc1ccc2c(c1OC)C(=O)OC2[C@H]1c2c(cc3c(c2OC)OCO3)CCN1C (stereo partly specified) ?
Response: 0

----------
Assay Text: chemical genetic growth profiling, strain panel (AID 1159580);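 note: tested at 20 µM; growth read once vehicle control cultures reached saturation at 30 °C; 1 = growth at the plate median or of vehicle wells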
Condition Info: S. cerevisiae deletion strains, growth OD, locus YJL166W, strain qcr8, stronger effect = lower value
Where a name gives a salt, the structure may show the parent alone. About 2,000 (36%) of roughly 5,500 compounds were called active. Another 18% or so got no clear call; they are omitted. This is one part of the list. Where a SMILES comes first, the peptide text is derived from it. The star is where a group is joined. Tfa = O=C(C(F)(F)F)*
Observed Property: normalized growth
One number for each entry.

Example entries begin here.
COc1ccc2c(c1OC)C(=O)OC2[C@H]1c2c(cc3c(c2OC)OCO3)CCN1C (stereo partly drawn): 1
CCCCOC(=O)c1ccc(N)cc1: 0.825
CCCOc1ccc(C(=O)OCCN(CC)CC)cc1N: 1
OCc1ccccc1O: 1.02

Please give normalized growth for each item listed below.
1. COc1ccc2c(c1)O[C@H]1c3ccc(OC)cc3OC[C@@H]21
2. COc1ccc([C@H]2Oc3cc(OC)cc(OC)c3C[C@H]2O)cc1
3. O=C(C1CCCCC1)N1CC(=O)N2CCc3ccccc3C2C1 (stereo not drawn)

Response:
1.02
0.994
1.02

Please give normalized growth for each item listed below.
1. O=C1OC2(c3ccc(O)cc3Oc3cc(O)ccc32)c2ccccc21
2. CCCCNc1ccc(C(=O)OCCN(C)C)cc1
3. CCCCN1CCCCC1C(=O)Nc1c(C)cccc1C (stereo not drawn)

Response:
1
1.02
0.994

Please give normalized growth for each item listed below.
1. CCCCCCOc1ccccc1C(N)=O
2. OCCOCCN1CCN(C2=Nc3ccccc3Sc3ccccc32)CC1
3. CC(C)C(NC(=O)C(Cc1ccc(O)cc1)NC(=O)C(NC(=O)C(F)(F)F)C(C)C)C(=O)O (stereo not drawn) (Tfa-Val-Tyr-Val-OH; configuration not given here)

Response:
[0.822, 1.01, 1.02]

----------
What normalized growth was measured for each of the following?
Assay Text: chemical genetic growth profiling, strain panel (AID 1159580);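 note: tested at 20 µM; growth read once vehicle control cultures reached saturation at 30 °C; 1 = growth at the plate median or of vehicle wells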
Condition Info: S. cerevisiae deletion strains, growth OD, locus YNR030W, strain Alg12, stronger effect = lower value
Hit rate of the full screen: of about 5,500 compounds, about 2,000 (36%) were called active. Roughly 18% stayed inconclusive and do not appear here. Some of the results follow.
One number for each entry.

COC(=O)c1c(-c2c(Cl)cccc2Cl)noc1NC(=O)NN1CCCCC1: 0.987
N#Cc1c(F)cccc1Oc1ccc(F)cc1: 0.986
O=C(CSCc1cccc2ccccc12)NNC(=S)Nc1ccccc1Cl: 0.63
Cc1nc(-c2ccc(S(=O)(=O)N3CCN(c4ncnc5scc(-c6ccccc6)c45)CC3)s2)cs1: 1.01
CC12NC(=O)NC1(C)NC(=O)N2 (stereo not given): 1.02
CC(=O)c1cnn(-c2ccccc2)c1C: 1
OC(CN1CCN(c2nc3ccc(Cl)cc3s2)CC1)CN1CCCN(c2ncc(C(F)(F)F)cc2Cl)CC1 (stereo not given): 0.0638
N#CCC(=O)Nc1ccccn1: 1.07
Cc1ccc(CC(=O)O)cc1: 1.03
N#CC(C#N)=Cc1ccc(-c2cc(C(F)(F)F)ccc2Cl)o1: 0.962

Please give normalized growth for each item listed below.
1. Clc1cccc(NC2=NCCS2)c1Cl
2. N#Cc1c(N)oc(-c2ccco2)c1-c1ccco1

Response:
[0.971, 0.903]

Please give normalized growth for each item listed below.
1. Cc1onc(-c2ccccc2)c1NC(=O)Nc1c(Cl)cccc1Cl
2. Cc1ccc(NC(=O)c2c(F)cccc2Cl)c(C(=O)Nc2ccc(F)cc2)c1

Response:
1. 0.983
2. 1

Please give normalized growth for each item listed below.
1. c1ccc(-c2cc3c(ccc4nonc43)nn2)cc1
2. CSC(=NS(=O)(=O)c1ccccc1)SC
3. N#C/C(=C\c1cccn1-c1ccc(OC(F)(F)F)cc1)S(=O)(=O)c1ccccc1

Response:
1. 0.905
2. 0.989
3. 1.05

Please give normalized growth for each item listed below.
1. N#C/C(=C\c1ccc(Oc2ccccc2)nc1)S(=O)(=O)c1ccccc1
2. COc1ccccc1N=C(N)SCc1ccccc1
3. Cc1ccc(NS(C)(=O)=O)cc1N=Cc1ccc(Cl)c(Cl)c1

Response:
[0.997, 1.02, 0.983]

----------
Assay Text: chemical genetic growth profiling, strain panel (AID 1159580);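 note: tested at 20 µM; growth read once vehicle control cultures reached saturation at 30 °C; 1 = growth at the plate median or of vehicle wells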
Condition Info: S. cerevisiae deletion strains, growth OD, locus YKL068W, stronger effect = lower value
In all, about 5,500 compounds went through this assay and about 2,000 (36%) were called active. Another 18% or so got no clear call; they are omitted. The list shows a part of the results.
What normalized growth was measured for each of the following?

Example entries begin here.
CC(C)NC[C@H](O)COc1cccc2ccccc12: 1.01 (inactive)
CC[C@H](C)C(=O)O[C@H]1CCC=C2C=C[C@H](C)C(CCC3C[C@@H](O)CC(=O)O3)[C@H]21 (some centres not stated): 0.987 (inactive)
O=c1cc[nH]c(=S)[nH]1: 1 (inactive)
CC[N+](CC)(CC)CCOc1cccc(OCC[N+](CC)(CC)CC)c1OCC[N+](CC)(CC)CC: 1 (inactive)
CC(C)COCC(CN(Cc1ccccc1)c1ccccc1)N1CCCC1 (configuration not stated): 0.989 (inactive)
Cc1cc(-c2ccccc2)nnc1NCCN1CCOCC1: 0.969 (inactive)

# next compound below
Prompt: // query normalized growth value for entry "O=C(O)c1cc2cc(Cc3cccnc3)ccc2o1"
Response: 0.992 (inactive)
